assay: melting temperature; fluorescence melt of hairpins on a sequencing array, two-state fit, raised by 9.35 °C to match UV melts; settings: sodium 0.088 M
Could you please report measured Tm for the items listed next?
Numbers only, in °C.

Some sequences with known Tm results, for comparison:
1) GAGAGCCGAAAGGCGCTC (((.(((....))).))); 67.8
2) GCAGAACCGAAAGGTTGC (((..(((....)))))); 44.5
3) GCGATGTCTCGC ((((....)))); 48.6
4) GCGACCCGTCGC ((((....)))); 60.7
5) GATCGTCGAACGATC ((((((...)))))); 53.1
6) GGTGCGGGAAACCGTGCC ((..(((....)))..)); 53.1
7) GGCTATCCGAAAGGAGCC (((..(((....)))))); 47.1
8) GATCAGTTGCCTGATC ((((((....)))))); 51.4

For the 3 sequences below, give their Tm values.
1. GATCCGATGACGGATC ((((((....))))))
2. CGGACGGAAACGTCTCCG ((((((....)))..)))
3. GTCTCAGGAAACTGAGAC (((((((....)))))))

Resp:
1. 58.2
2. 35.7
3. 59.5

For the 5 sequences below, give their Tm values.
1. GATCAGTGATCTGATC ((((((....))))))
2. GAGTCCGAAAGGAATCTC ((((((....)))..)))
3. GGTCGCGAAAGCGCAACC ((((((....)))..)))
4. GACAGTACGAAAGTAGTC (((..(((....))))))
5. GGTAACACGAAAGTGACC (((..(((....))))))

Resp:
1. 50.2
2. 50.2
3. 42.4
4. 31.1
5. 37.1

For the 7 sequences below, give their Tm values.
1. GGCTTCCGAAAGGAGCC (((.(((....))))))
2. GATCCAATCCTGGATC ((((((....))))))
3. GGTCCCGGAAACGGGGTC (..((((....))))..)
4. GCTAAGCGAAAGCTGGGC ((..(((....)))..))
5. GGGATTGCGAAAGCACCC (((..(((....))))))
6. GCGGGTTCCGC ((((...))))
7. GTTCGTGGAAACACGAAC (((((((....)))))))

Resp:
1: 60; 2: 49.2; 3: 42.8; 4: 52.9; 5: 41.2; 6: 57.2; 7: 65.8
